// data source = patent US9637451B2

Reported Emax values follow for various molecules
TARGET ENTITY: human MT1 receptor (Homo sapiens)
Construct: expressed in transfected cells
TEST SUMMARY: Activation of human MT1 receptor in receptor-expressing cells, intracellular Ca2+ by FLIPR
Format: cell-based
EXPERIMENTAL CONTEXT: maximum reaction by ramelteon taken as 100%
Answer with a number only, understood to be in %.

RECORD SMILES: CC(=O)NCCc1c[nH]c2ccc(OCCOc3cncc(Br)c3)cc12
Emax / %: 102

RECORD SMILES: COc1ccc(OCCOc2cc3c(CCNC(C)=O)c(C)[nH]c3cc2F)cn1
Emax / %: 100

RECORD SMILES: COc1ccc(OCCOc2ccc3[nH]cc(CCNC(C)=O)c3c2)cn1
Emax / %: 89

RECORD SMILES: CNC(=O)NCCc1c(C)[nH]c2cc(F)c(OCCOc3ccn(C)n3)cc12
Emax / %: 124

RECORD SMILES: CC(=O)NCCc1c[nH]c2ccc(OCCOc3ccn(C)n3)cc12
Emax / %: 125

RECORD SMILES: CCc1ccn(CCOc2cc3c(CCNC(C)=O)c[nH]c3cc2F)n1
Emax / %: 83

stdin: Determine from records and report Emax for CC(=O)NCCc1c(C)[nH]c2cc(F)c(OCCn3ccc(C)n3)cc12
stdout: 105

* * *

Reported pEC50 values follow for various compounds
TARGET ENTITY: human MT1 receptor (Homo sapiens, UniProt P48039)
Sequence (P48039 whole entry): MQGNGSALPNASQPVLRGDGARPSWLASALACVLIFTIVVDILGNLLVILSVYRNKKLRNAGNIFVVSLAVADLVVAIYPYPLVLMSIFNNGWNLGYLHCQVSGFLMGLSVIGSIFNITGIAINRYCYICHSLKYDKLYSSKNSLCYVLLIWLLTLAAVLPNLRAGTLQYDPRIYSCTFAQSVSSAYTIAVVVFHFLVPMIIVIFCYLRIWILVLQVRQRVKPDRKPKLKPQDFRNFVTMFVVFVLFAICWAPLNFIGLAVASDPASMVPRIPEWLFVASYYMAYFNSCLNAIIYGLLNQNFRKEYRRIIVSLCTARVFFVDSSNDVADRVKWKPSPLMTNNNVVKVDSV
TEST SUMMARY: Activation of human MT1 receptor in receptor-expressing cells, intracellular Ca2+ by FLIPR
EXPERIMENTAL CONTEXT: HEK293EBNA1 cells stably expressing human MT1 and Gq/i chimeric G protein; Ca2+ FLIPR
In textbook form, pEC50 equals minus log to base ten of the concentration in mol/L.

Some compounds with known pEC50 results, for comparison:
RECORD SMILES: Cn1ccc(OCCOc2cc3c(CCNC(=O)C(F)F)c[nH]c3cc2F)n1
PROPERTY LABEL: pEC50
OBSERVED RESULT: 8.48

RECORD SMILES: CC(=O)NCCc1c[nH]c2ccc(OCCOc3nccc(C(F)(F)F)n3)cc12
PROPERTY LABEL: pEC50
OBSERVED RESULT: 7.96

RECORD SMILES: COc1ccc(OCCOc2cc3c(CCNC(C)=O)c(C)[nH]c3cc2F)cn1
PROPERTY LABEL: pEC50
OBSERVED RESULT: 8.00

stdin: Determine from records and report pEC50 for CNC(=O)NCCc1c(C)[nH]c2ccc(OCCOc3ccc(OC)nc3)cc12
stdout: 8.85

stdin: Determine from records and report pEC50 for CC(=O)NCCc1c[nH]c2ccc(OCCOc3cccc(C)n3)cc12
stdout: 9.15

stdin: Determine from records and report pEC50 for CC(=O)NCCc1c[nH]c2ccc(OCCOc3cnccn3)cc12
stdout: 8.00

stdin: Determine from records and report pEC50 for CNC(=O)NCCc1c[nH]c2ccc(OCCOc3ccnc(Cl)c3)cc12
stdout: 8.00

stdin: Determine from records and report pEC50 for CC(=O)NCCc1c[nH]c2cc(F)c(OCCc3csc(C)n3)cc12
stdout: 8.82

stdin: Determine from records and report pEC50 for CNC(=O)NCCc1c(C)[nH]c2ccc(OCCOc3ccnc(C)c3)cc12
stdout: 8.00

* * *

TARGET ENTITY: human MT1 receptor (Homo sapiens)
Construct: expressed in transfected cells
TEST SUMMARY: Activation of human MT1 receptor in receptor-expressing cells, intracellular Ca2+ by FLIPR
Format: cell-based
EXPERIMENTAL CONTEXT: maximum reaction by ramelteon taken as 100%
PROPERTY LABEL: Emax (%)
Answer with a number only, understood to be in %.

Some compounds with known Emax results, for comparison:
RECORD SMILES: CC(=O)NC[C@H](C)c1c[nH]c2cc(F)c(OCCOc3ccn(C)n3)cc12
TARGET ENTITY: human MT1 receptor (Homo sapiens)
UNITS: %
OBSERVED RESULT: 105
//
RECORD SMILES: CC(=O)NCCc1c[nH]c2ccc(OCCOc3cnccn3)cc12
TARGET ENTITY: human MT1 receptor (Homo sapiens)
UNITS: %
OBSERVED RESULT: 94
//
RECORD SMILES: COC(=O)NCCOc1cc2c(CCNC(C)=O)c(C)[nH]c2cc1F
TARGET ENTITY: human MT1 receptor (Homo sapiens)
UNITS: %
OBSERVED RESULT: 94

stdin: Determine from records and report Emax for CCC(=O)NCCc1c(C)[nH]c2ccc(OCCn3ccc(C)n3)cc12
stdout: 106

stdin: Determine from records and report Emax for CNC(=O)NCCc1c[nH]c2ccc(OCCOc3ccc(OC)nc3)cc12
stdout: 87

stdin: Determine from records and report Emax for CNC(=O)NCCc1c[nH]c2ccc(OCCc3nc(C)sc3C)cc12
stdout: 103

stdin: Determine from records and report Emax for CC(=O)NCCc1c[nH]c2ccc(OCCOc3cccc(C)n3)cc12
stdout: 107

stdin: Determine from records and report Emax for Cn1ccc(OCCOc2ccc3[nH]cc(CCNC(=O)C(F)F)c3c2)n1
stdout: 97

* * *

TARGET ENTITY: human MT2 receptor (Homo sapiens)
TEST SUMMARY: Activation of human MT2 receptor in receptor-expressing cells, intracellular Ca2+ by FLIPR
EXPERIMENTAL CONTEXT: HEK293 cells stably expressing human MT2 and Gq/i chimeric G protein; Ca2+ FLIPR
PROPERTY LABEL: pEC50
In textbook form, pEC50 equals minus log to base ten of the concentration in mol/L.

RECORD SMILES: CNC(=O)NCCc1c[nH]c2ccc(OCCOc3ccc(OC)nc3)cc12
TARGET ENTITY: human MT2 receptor (Homo sapiens)
PROPERTY LABEL: pEC50
OBSERVED RESULT: 7.27
//
RECORD SMILES: COc1ccc(OCCOc2cc3c(CCNC(C)=O)c(C)[nH]c3cc2F)cn1
TARGET ENTITY: human MT2 receptor (Homo sapiens)
PROPERTY LABEL: pEC50
OBSERVED RESULT: 7.00
//
RECORD SMILES: CCC(=O)NCCc1c(C)[nH]c2cc(F)c(OCCOc3ccn(C)n3)cc12
TARGET ENTITY: human MT2 receptor (Homo sapiens)
PROPERTY LABEL: pEC50
OBSERVED RESULT: 7.85
//
RECORD SMILES: CC(=O)NCCc1c[nH]c2ccc(OCCn3ccc(C(F)(F)F)n3)cc12
TARGET ENTITY: human MT2 receptor (Homo sapiens)
PROPERTY LABEL: pEC50
OBSERVED RESULT: 7.48
//
RECORD SMILES: CNC(=O)NCCc1c(C)[nH]c2ccc(OCCOc3ccn(C)n3)cc12
TARGET ENTITY: human MT2 receptor (Homo sapiens)
PROPERTY LABEL: pEC50
OBSERVED RESULT: 7.68
//
RECORD SMILES: CC(=O)NCCc1c[nH]c2ccc(OCCOc3ccnc(C)c3)cc12
TARGET ENTITY: human MT2 receptor (Homo sapiens)
PROPERTY LABEL: pEC50
OBSERVED RESULT: 8.02

stdin: Determine from records and report pEC50 for CCCc1cccc(OCCOc2ccc3[nH]cc(CCNC(C)=O)c3c2)n1
stdout: 8.27

stdin: Determine from records and report pEC50 for CC(=O)NCCc1c[nH]c2ccc(OCCOc3ccn(C)n3)cc12
stdout: 7.77

stdin: Determine from records and report pEC50 for CC(=O)NCCc1c[nH]c2cc(F)c(OCCn3cc(Cl)cn3)cc12
stdout: 7.74

* * *

TARGET ENTITY: human MT1 receptor (Homo sapiens)
Construct: expressed in transfected cells
TEST SUMMARY: Activation of human MT1 receptor in receptor-expressing cells, intracellular Ca2+ by FLIPR
Assay type: cell-based
EXPERIMENTAL CONTEXT: maximum reaction by ramelteon taken as 100%
PROPERTY LABEL: Emax (%)
Answer with a number only, understood to be in %.

COMPOUND: CC(=O)NCCc1c[nH]c2cc(F)c(OCCc3csc(C)n3)cc12 [Example 25]
Emax (%): 105

stdin: Determine from records and report Emax for CCC(=O)NCCc1c(C)[nH]c2ccc(OCCOc3ccn(C)n3)cc12 [Example 1]
stdout: 95

stdin: Determine from records and report Emax for CC(=O)NCCc1c[nH]c2ccc(OCCOc3ccnc(C)c3)cc12 [Example 59]
stdout: 120

stdin: Determine from records and report Emax for COc1ncc(OCCOc2ccc3[nH]cc(CCNC(C)=O)c3c2)cc1F [Example 32]
stdout: 96

stdin: Determine from records and report Emax for CCC(=O)NCCc1c(C)[nH]c2cc(F)c(OCCOc3ccn(C)n3)cc12 [Example 45]
stdout: 99

* * *

TARGET ENTITY: human MT2 receptor (Homo sapiens, UniProt P49286)
Construct: expressed in transfected cells
Sequence (P49286 1-362): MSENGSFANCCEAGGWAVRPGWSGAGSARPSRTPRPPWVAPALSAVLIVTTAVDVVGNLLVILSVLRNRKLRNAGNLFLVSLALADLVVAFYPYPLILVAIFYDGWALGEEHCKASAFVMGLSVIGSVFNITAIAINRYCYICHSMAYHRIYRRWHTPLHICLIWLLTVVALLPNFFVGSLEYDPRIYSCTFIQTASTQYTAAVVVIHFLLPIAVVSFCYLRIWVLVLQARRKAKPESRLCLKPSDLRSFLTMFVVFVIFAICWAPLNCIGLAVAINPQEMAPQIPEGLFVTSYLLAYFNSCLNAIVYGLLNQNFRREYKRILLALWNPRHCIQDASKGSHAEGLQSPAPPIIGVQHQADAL
TEST SUMMARY: Activation of human MT2 receptor in receptor-expressing cells, intracellular Ca2+ by FLIPR
Type: cell-based
EXPERIMENTAL CONTEXT: maximum reaction by ramelteon taken as 100%
PROPERTY LABEL: Emax (%)
Answer with a number only, understood to be in %.

Some compounds with known Emax results, for comparison:
COMPOUND: CNC(=O)NCCc1c[nH]c2cc(F)c(OCCc3csc(C)n3)cc12
TARGET ENTITY: human MT2 receptor (Homo sapiens, UniProt P49286)
Emax (%): 106

COMPOUND: CC(=O)NCCc1c[nH]c2ccc(OCCOc3cccc(C)n3)cc12
TARGET ENTITY: human MT2 receptor (Homo sapiens, UniProt P49286)
Emax (%): 99

COMPOUND: CC(=O)NCCc1c[nH]c2ccc(OCCOc3cncc(Cl)c3)cc12
TARGET ENTITY: human MT2 receptor (Homo sapiens, UniProt P49286)
Emax (%): 133

COMPOUND: CC(=O)NCCc1c[nH]c2cc(F)c(OCCn3cc(Cl)cn3)cc12
TARGET ENTITY: human MT2 receptor (Homo sapiens, UniProt P49286)
Emax (%): 71

COMPOUND: COC(=O)NCCOc1ccc2[nH]c(C)c(CCNC(C)=O)c2c1
TARGET ENTITY: human MT2 receptor (Homo sapiens, UniProt P49286)
Emax (%): 91

COMPOUND: CNC(=O)NCCc1c(C)[nH]c2cc(F)c(OCCOc3ccn(C)n3)cc12
TARGET ENTITY: human MT2 receptor (Homo sapiens, UniProt P49286)
Emax (%): 145

stdin: Determine from records and report Emax for CCOC(=O)NCCOc1ccc2[nH]c(C)c(CCNC(C)=O)c2c1
stdout: 93

stdin: Determine from records and report Emax for CC(=O)NCCc1c(C)[nH]c2cc(F)c(OCCOc3ccn(C)n3)cc12
stdout: 110

stdin: Determine from records and report Emax for CCCc1cccc(OCCOc2ccc3[nH]cc(CCNC(C)=O)c3c2)n1
stdout: 92

stdin: Determine from records and report Emax for CC(=O)NCCc1c[nH]c2ccc(OCCOc3nccc(C(F)(F)F)n3)cc12
stdout: 118

stdin: Determine from records and report Emax for CCC(=O)NCCc1c(C)[nH]c2ccc(OCCn3ccc(C)n3)cc12
stdout: 110

stdin: Determine from records and report Emax for CNC(=O)NCCc1c(C)[nH]c2ccc(OCCn3ccc(C)n3)cc12
stdout: 110

stdin: Determine from records and report Emax for COc1ncc(OCCOc2cc3c(CCNC(C)=O)c[nH]c3cc2F)cc1F
stdout: 53

stdin: Determine from records and report Emax for CC(=O)NC[C@H](C)c1c[nH]c2cc(F)c(OCCn3ccc(C)n3)cc12
stdout: 49

stdin: Determine from records and report Emax for CNC(=O)NCCc1c(C)[nH]c2ccc(OCCOc3ccnc(C)c3)cc12
stdout: 116

stdin: Determine from records and report Emax for CC(=O)NCCc1c(C)[nH]c2ccc(OCCOc3ccnc(C)c3)cc12
stdout: 123

stdin: Determine from records and report Emax for CNC(=O)NCCc1c[nH]c2ccc(OCCOc3ccnc(Cl)c3)cc12
stdout: 117

stdin: Determine from records and report Emax for CC(=O)NCCc1c[nH]c2ccc(OCCOc3cccc(C4CC4)n3)cc12
stdout: 104

stdin: Determine from records and report Emax for CC(=O)NCC(C)c1c[nH]c2ccc(OCCOc3ccn(C)n3)cc12 (stereo not shown)
stdout: 125
